target: T1, human CD3e/g (human, UniProt P07766 23-126; P09693 23-116); assay: SPR (Carterra LSA), mAb on chip
T1 construct: Bought soluble protein; also called hCD3e/g; human CD3e/g (Acro CDD-C52W4)
T1 sequence (P07766 23-126, chain 1 of 2): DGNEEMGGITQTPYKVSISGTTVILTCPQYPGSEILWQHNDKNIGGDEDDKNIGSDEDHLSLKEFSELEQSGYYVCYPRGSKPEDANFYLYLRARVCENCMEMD
T1 sequence (P09693 23-116, chain 2 of 2): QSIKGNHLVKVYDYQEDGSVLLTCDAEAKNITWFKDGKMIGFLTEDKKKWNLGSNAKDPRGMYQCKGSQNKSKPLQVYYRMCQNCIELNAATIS

| binder | Kd (nM) |
| --- | --- |
| mAb 238 (antibody, V domains shown, VH and VL only) VH: EVQLLESGGDLVQPGGSLRLTCAASGFTFRSYAMNWVRQAPGKGLEWVSTISSRGDTTNYADSVKGRFTISRDTSKNTLYLQMDNLRADDTAVYYCSKMFSYYYYYMDVWGKGTTVTVSS VL: SYELTQPLSVSVALGQTARITCGGNNIGSKDVHWYQQKPGQAPVLVIYRDSNRPSGIPERFSGSNSGNTATLTISRAQAGDEADYYCQVWDSSTAVFGGGTQLTAL | 17 |
| mAb 263 (antibody, V domains shown, VH and VL only) VH: EVQLLESGGGLVQPGGSLRLSCTPSGITFNNYAMTWVRQAPGKGLEWVSGISVSGGSTYYADSVMGRFTISRDSSKTLYLQMNSLRAEDTAVYYCAKFHSHYYYYMDVWGKGTTVTVSS VL: SYELTQPLSVSVALGQTARITCGGNNIGSKDVHWYQQKPGQAPVLVIYRDSNRPSGIPERFSGSNSGNTATLTISRAQAGDEADYYCQVWDRRTAVFGGGTQLTAL | 4.1 |
| mAb 86 (antibody, V domains shown, VH and VL only) VH: QVQLAESGGGVVQPGRSLRLSCEASGFTFSGYGMHWVRQAPGKGLDWVAIIYYDGKNKYYADSVKGRFTISRDNSKNTLYLQMNSLRAEDTAVYYCARGGGYNWFDPWGQGTLVTVSS VL: DIQMTQSPSSLSASVGDRVTITCRPSQTISKYLNWYQQKPGKAPKLLIYAASSLQSGVPSRFSGSGSGTDFTLTISSLQPEDFATYYCQQSYITPITFGRGTRLEIK | 91.9 |
| mAb 145 (antibody, V domains shown, VH and VL only) VH: QVQLVQSGAEVKKPGASVKVSCKASGYTFTNYYIHWVRQAPGQGLDWMGIINPSGGITGYAQKFQGRVTMTRDTSTTTVYMELSSLRSDDTAVYYCARGVRGNYYYYYMDVWGKGTTVTVSS VL: EIVLTQSPDFQSVTPKEKVTITCRASQSIGSKLHWYQQKPDQSPKLLIKFASQSFSGVPSRFSGSGSGTDFNLTINSLEPEDAATFYCHQSSGLPYTFGQGTKLEIK | 13.1 |
| mAb 224 (antibody, V domains shown, VH and VL only) VH: QVQLVESGGGVVQPGRSLRLSCAASGFTFSGYGMHWVRQAPGKGLEWVAIIYYNGKKEYYADSVKGRFTISRDNSKNMLYLQMNGLRAEDTAIYYCTRGEGYNWFDPWGQGTLVTVSS VL: EIVMTQSPATLSVSPGERTTLSCRASQSVSNNLAWYQQKPGQAPRLLIYGASTRATGIPARFSGSGSGTEFTLTISSLQSEDFAVYYCQQYNNWPLTFGGGTKVEIK | 18 |
